src = patent US20100093817A1

experimental.target: human dopamine-β-hydroxylase (Homo sapiens)
Construct: SK-N-SH cells (ATCC HTB-11), a human neuroblastoma derived cell line, were used as a source of human dopamine-β-hydroxylase; host or cells: SK-N-SH human neuroblastoma cells
procedure.details: Human DβH in vitro assay: β-hydroxylation of dopamine to noradrenaline, SK-N-SH cells as enzyme source
Assay type: biochemical
cond: SK-N-SH cells as source of human DβH; 50 mM dopamine; test compounds 0.3 to 10,000 nM; read-out: In vitro DβH inhibition (IC50 μM)
Structures can show the parent of a compound that is named as a salt.
endpoint: IC50 (µM)
Your answer is read as µM, so omit the unit and give the number.

The cases that follow already have their IC50 on record.
compound	experimental.target	IC50 (µM)
O=C(O)Cc1c[nH]c(=S)n1[C@H]1COc2c(F)cc(F)cc2C1	human dopamine-β-hydroxylase (Homo sapiens)	0.6
NCCc1c[nH]c(=S)n1[C@H]1COc2c(F)cc(F)cc2C1 [Compound I, reference compound]	human dopamine-β-hydroxylase (Homo sapiens)	0.2
ONCCc1c[nH]c(=S)n1[C@H]1COc2c(F)cc(F)cc2C1 [compound V, hydrochloride]	human dopamine-β-hydroxylase (Homo sapiens)	0.5
CC(=O)NCCc1c[nH]c(=S)n1[C@H]1COc2c(F)cc(F)cc2C1	human dopamine-β-hydroxylase (Homo sapiens)	0.5

Moving on to another compound below.
Would you kindly share the measured IC50 for NC(=O)Cc1c[nH]c(=S)n1[C@H]1COc2c(F)cc(F)cc2C1 ?
1.8

====

experimental.target: human dopamine-β-hydroxylase (Homo sapiens, UniProt P09172)
Construct: SK-N-SH cells (ATCC HTB-11), a human neuroblastoma derived cell line, were used as a source of human dopamine-β-hydroxylase; host or cells: SK-N-SH human neuroblastoma cells
Sequence (P09172 whole entry): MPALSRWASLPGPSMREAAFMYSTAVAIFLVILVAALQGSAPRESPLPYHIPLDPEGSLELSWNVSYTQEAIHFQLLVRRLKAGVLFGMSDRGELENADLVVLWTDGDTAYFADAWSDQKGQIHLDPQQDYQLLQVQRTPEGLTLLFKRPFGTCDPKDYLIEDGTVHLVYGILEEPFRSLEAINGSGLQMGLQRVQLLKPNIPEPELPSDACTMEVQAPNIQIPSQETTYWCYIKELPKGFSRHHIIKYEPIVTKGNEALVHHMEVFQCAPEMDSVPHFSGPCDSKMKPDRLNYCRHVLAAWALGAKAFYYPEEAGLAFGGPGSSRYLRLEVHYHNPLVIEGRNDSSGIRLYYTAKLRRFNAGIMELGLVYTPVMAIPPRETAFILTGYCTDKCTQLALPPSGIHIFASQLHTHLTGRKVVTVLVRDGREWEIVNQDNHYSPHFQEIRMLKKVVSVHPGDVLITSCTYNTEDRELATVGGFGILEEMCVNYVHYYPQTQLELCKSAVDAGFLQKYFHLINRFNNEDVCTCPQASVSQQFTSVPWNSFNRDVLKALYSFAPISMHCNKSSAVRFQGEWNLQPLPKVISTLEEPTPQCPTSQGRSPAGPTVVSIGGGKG
procedure.details: Human DβH in vitro assay: β-hydroxylation of dopamine to noradrenaline, SK-N-SH cells as enzyme source
Format: biochemical
Set-up: key: + = inhibitory activity
cond: SK-N-SH cells as source of human DβH; 50 mM dopamine; test compounds 0.3 to 10,000 nM
Counter-ions that a name gives are not always drawn.
endpoint: In vitro DβH inhibition

The cases that follow already have their In vitro DβH inhibition on record.
molecule	experimental.target	endpoint	observed.value
NC(=O)Cc1c[nH]c(=S)n1[C@H]1COc2c(F)cc(F)cc2C1	human dopamine-β-hydroxylase (Homo sapiens, UniProt P09172)	In vitro DβH inhibition	+
O=C(O)Cc1c[nH]c(=S)n1[C@H]1COc2c(F)cc(F)cc2C1	human dopamine-β-hydroxylase (Homo sapiens, UniProt P09172)	In vitro DβH inhibition	+
ONCCc1c[nH]c(=S)n1[C@H]1COc2c(F)cc(F)cc2C1 [compound V, hydrochloride]	human dopamine-β-hydroxylase (Homo sapiens, UniProt P09172)	In vitro DβH inhibition	+
O=S(=O)([O-])NCCc1c[nH]c(=S)n1[C@H]1COc2c(F)cc(F)cc2C1.[Na+]	human dopamine-β-hydroxylase (Homo sapiens, UniProt P09172)	In vitro DβH inhibition	+

Would you kindly share the measured In vitro DβH inhibition for NCCc1c[nH]c(=S)n1[C@H]1COc2c(F)cc(F)cc2[C@@H]1O [compound VI, hydrochloride] ?
+

Would you kindly share the measured In vitro DβH inhibition for NCCc1c[nH]c(=S)n1[C@H]1COc2c(F)cc(F)cc2C1 [Compound I, reference compound] ?
+

Would you kindly share the measured In vitro DβH inhibition for CC(=O)NCCc1c[nH]c(=S)n1[C@H]1COc2c(F)cc(F)cc2C1 ?
+
